Target: GPR3 (Homo sapiens, UniProt P46089)
Construct: expressed in transfected cells; host or cells: CHO cells
Sequence (P46089 whole entry, species assumed): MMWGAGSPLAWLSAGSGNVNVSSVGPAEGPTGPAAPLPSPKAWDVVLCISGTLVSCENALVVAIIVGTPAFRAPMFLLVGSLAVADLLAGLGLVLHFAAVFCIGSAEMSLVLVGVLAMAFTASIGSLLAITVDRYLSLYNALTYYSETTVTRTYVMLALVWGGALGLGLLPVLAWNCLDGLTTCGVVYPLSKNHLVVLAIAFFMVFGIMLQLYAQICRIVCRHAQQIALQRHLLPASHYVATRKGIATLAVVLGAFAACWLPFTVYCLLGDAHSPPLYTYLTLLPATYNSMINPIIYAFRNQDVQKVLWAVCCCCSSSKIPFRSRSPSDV
Test: GPR3 antagonist functional cAMP assay (LANCE Ultra cAMP TR-FRET, CHO cells stably expressing GPR3)
Assay type: cell-based
Details: procedure of Example 24
Description: Example 56. GPR6 and GPR3 Antagonist Functional cAMP Assay CHO cells stably expressing GPR6 or GPR3 receptors were dissociated from cell culture flasks and incubated for 2 h at 37° C. in a 10 cm dish in a humidified incubator. […] To measure cAMP levels, LANCE® Ultra cAMP assay (Perkin Elmer), a homogeneous time-resolved fluorescence resonance energy transfer (TR-FRET) immunoassay was used following manufacturer's recommendations. […] FRET values were reported as readings obtained at 665 nm. […]
Consider the following molecules; for each one, report its IC50.

- molecule: "CC(=O)N1CCc2nc(N3CCN(C(c4ccccc4)C(F)(F)F)CC3)c(-c3cnn(C)c3)nc2C1 (stereo not shown)"
  IC50: "1 to 30 µM"
- molecule: "CC(C)(O)[C@](C)(O)c1cc2nc(-c3cnn(C(F)F)c3)c(N3CCN(Cc4cc(F)ccc4F)CC3)nc2cn1 (single isomer, unassigned)"
  IC50: "1 to 30 µM"
- molecule: "CC(C)(O)[C@@](C)(O)c1cc2nc(-c3cnn(C4CC4)c3)c(N3CCN(Cc4ccc(F)cc4F)CC3)nc2cn1 (single isomer, unassigned)"
  IC50: "1 to 30 µM"

For every item in the list below, what is its measured IC50?
1. CC(C)(O)[C@@](C)(O)c1cc2nc(N3CCN(Cc4ccc(F)cc4F)CC3)c(-c3cnn(C(F)F)c3)nc2cn1 (single isomer, unassigned)
2. COc1cc(F)c(CN2CCN(c3nc4c(nc3-c3cnn(C)c3)CN(C(C)=O)CC4)CC2)cc1Cl
3. Cn1cc(-c2nc3cc([C@@](C)(O)C(C)(C)O)ncc3nc2N2CCC(Oc3ccc(F)cc3F)CC2)cn1 (single isomer, unassigned)
4. COc1ccc(C(=O)N2CCN(c3nc4c(nc3-c3cnn(C)c3)CN(C(C)=O)CC4)CC2)cc1F
5. CC(C)(O)C(=O)N1CCc2nc(N3CCC(Oc4ccc(F)cc4F)CC3)c(-c3ccc(F)c(N)n3)nc2C1

Response line:
1. 1 to 30 µM
2. 1 to 30 µM
3. 1 to 30 µM
4. ≥ 30 µM
5. 0.1 to 1 µM

// for each molecule in input: emit IC50
1. CC(C)(O)[C@@](C)(O)c1cc2nc(-c3cnn(CF)c3)c(N3CCC(Oc4ccc(F)cc4F)CC3)nc2cn1 (single isomer, unassigned)
2. CC(=O)N1CCc2nc(N3CCN(C(=O)c4cc(F)cc(F)c4)CC3)c(-c3cnn(C)c3)nc2C1

Response line:
1 to 30 µM
1 to 30 µM
